assay method text: yeast display, Sf9 membrane polyspecificity reagent, FACS + sequencing; frameworks hold sequencing errors
experimental endpoint: polyreactivity (PSR sort gate)

sequence content	test result
QVQLVESGGGLVQAGGSLSLSCAATGRIFDGNVMGWYRQAPGKERELVAAISSGDSTNYADSVKGRFTISRDNAKNTVYLQRNSLKTEDTAVYDCNRTPNSGGYDRFYGGDFYYWGQGTQVTVSS	low polyreactivity
QVQLVESGGGLVQAGGSLLLSCAASGFIFVSYAMGWYRQAPGKERELVAAIDRIGGITYYADSVKGRFTISRDNAKNTVYLQMNSLKREDTAVYYCAAAARFATVRVGREYYWGQGTQVTVSS	low polyreactivity
